These measurements were taken from PubChem BioAssay (NCI).

- Test system: OVCAR-5 ovarian
- method description: NCI tumour cell line growth inhibition, 48 h
For each of the compounds below, state its GI50.

Fill in GI50 for record "CCNCCS(=O)(=O)NC[C@@]1(c2ccccc2)SC(NC(=O)C(C)(C)C)=NN1C(=O)C(C)(C)C"
0.138 µM

Kindly indicate its recorded GI50. Item: "COc1cc(C(=O)/C=C/c2cccnc2Nc2ccc(Cl)cc2)cc(OC)c1OC"
1.74 µM

Identify measured GI50 corresponding to "Cc1ccc(/C=C(/C#N)n2nnc3cccc(F)c32)cc1"
0.673 µM

For the compound "[pH]1p2[pH]p3p1p3[pH]2.c1cc[c]([Ge]([c]2ccccc2)[c]2ccccc2)cc1.c1cc[c]([Ge]([c]2ccccc2)[c]2ccccc2)cc1.c1cc[c]([Ge]([c]2ccccc2)[c]2ccccc2)cc1" , give its reported GI50.
18.2 µM

Give the value of GI50 reported for the following: COc1cc(C2C=C(C)N=C3SC=C(C)N32)cc(OC)c1OC (configuration not stated)
1.55 µM

Recall and state the measured GI50 for "COc1ccc(-c2cc(-c3ccc(Cl)cc3)nc(SCCCC(=O)NO)n2)cc1OC" .
0.931 µM

Item "CN1CCC(=C(c2ccc(Cl)cc2)c2ccccn2)CC1" : provide GI50
> 100 µM

Provide only the value of recorded GI50 for "C=CCc1cc(O)ccc1O"
26.7 µM

Specify reported GI50 for the compound shown: "c1ccc(C2=Nc3ccccc3N3CNN=C23)cc1"
> 100 µM

Give the measured GI50 for CC[C@]1(O)CC2CN(CCc3c([nH]c4ccccc34)C(C(=O)OC)(c3cc4c(cc3OC)N(C=O)[C@H]3[C@@](O)(C(=O)OC)[C@H](OC(C)=O)[C@]5(CC)[C@@H]6C[C@@H]6CN6CC[C@]43[C@@H]65)C2)C1 (some centres not stated)
< 0.00325 µM

Write down GI50 measured for item CC(=O)CCC[C@@H](C)[C@@H]1O[C@H]([C@@]2(C)CCC(=O)O2)CC2[C@H]1OC(=O)C21CC1 (some centres not stated)
> 100 µM

Supply reported GI50 belonging to this compound: "CC(C)(Oc1cccc(N2CCC[C@@H](C(=O)N(Cc3ccc(-c4cn[nH]c4)cc3)C3CC3)C2)c1)C(=O)N1CCNCC1"
16.6 µM

---

So I've got a bunch of compounds here, and I need their TGI values.
- System: M19-MEL melanoma
- method description: NCI tumour cell line growth inhibition, 48 h

Tell me its TGI given c1ccc(-c2sc(-c3ccccc3)c3c2C(c2ccccc2)c2c(-c4ccccc4)sc(-c4ccccc4)c2C3c2ccccc2)cc1 (configuration not stated) as the entry.
> 100 µM

Supply TGI value. Item: CC1CN1c1c(C(=O)/C=C/c2ccc(F)cc2)c(-c2ccccc2)nn(C)c1=O (configuration not stated)
27.7 µM

Let me know recorded TGI for Cc1cc(C(O)CCCc2ccccc2)cc(C)c1O (configuration not stated) , thanks.
> 100 µM

Assign TGI to the following record: "Nc1nc(N)c(N=Nc2ccccc2)c(=O)[nH]1"
> 100 µM

Identify TGI associated with the compound "O=C(Nc1ccc(Nc2ccc(NC(=O)c3ccccc3)c3c2C(=O)c2ccccc2C3=O)c2c1C(=O)c1ccccc1C2=O)c1ccccc1"
> 100 µM

Return reported TGI. Input compound: "Nc1nc(N)c2c(Cl)c(CNc3ccc(Cl)c(Cl)c3)ccc2n1"
12.5 µM

Identify TGI associated with the compound "CCOC(=O)C1(C)C2=CC=C(O2)C(C)(C)C2=CC=C(O2)C(C)(C)C2=CC=C(O2)C(C)(C)C2=CC=C1O2"
> 100 µM

Supply measured TGI of "Cc1cc(N(CCC#N)CCC#N)ccc1/C(Sc1ccccc1)=C(\NC(=O)/C=C/c1ccccc1)C(=O)Sc1ccccc1" in your reply.
14.7 µM

Provide only the value of recorded TGI for "COc1ccc(N=Nc2c(-c3ccccc3)nn(C(=O)CC(=O)Nc3ccc(OC)cc3)c2-c2ccccc2)cc1"
> 100 µM

Quick one: give measured TGI for "[CH3][Ge]([CH3])([CH2]CC#N)[S]c1ccccc1"
48 µM

Please supply the value of reported TGI for the item "Cc1[nH]c2ccccc2c1/C=C/c1c(C)[nH]c2ccccc12"
> 100 µM

Answer with the recorded TGI for the compound listed here: CC12CCC(=O)N1[C@@H](c1ccccc1)[C@@H](c1ccccc1)O2 (some centres not stated)
> 100 µM
